Test system: SK-MEL-28 melanoma
Test: NCI-60 one-dose screen, 48 h (100 = growth as untreated, 0 = no growth, -100 = all killed)
Conditions: 10 µM unless noted
Protocol: Growth inhibition of the SK-MEL-28 human tumor cell line is measured as a screen for anti-cancer activity. Cells are grown in 96 well plates and exposed to the test compound for 48 hours. Compounds are tested at a single concentration, which is 10^-5 M for most compounds. The reported endpoint is percent growth (GI% or GIPRCNT), where numbers from 0 - 100% represent growth inhibition, and numbers from -100% - 0 represent cell death. For example, a value of 40 represents 60% growth inhibition. […]
Compounds without any hit were thinned out: in the full panel of roughly 83,000, 20% have a hit. Calls of active or inactive are those of the source. Rule for the calls: active = growth percent below 10; inactive = the rest.

[
  {
    "molecule": "COc1ccc2c(c1)[nH]c(=O)c1c3cc(OC)ccc3cn21",
    "assayTarget": "SK-MEL-28 melanoma",
    "growth": "62.3% (inactive)"
  },
  {
    "molecule": "O=C1C2(c3ccccc3)C(c3ccccc3)=C(c3ccccc3)C1(c1ccccc1)C1CC=CC12 (configuration not stated)",
    "assayTarget": "SK-MEL-28 melanoma",
    "growth": "108% (inactive)"
  },
  {
    "molecule": "O=C(Nc1ccncc1)C(=O)c1cn(S(=O)(=O)c2ccc(Cl)cc2)c2ccccc12",
    "assayTarget": "SK-MEL-28 melanoma",
    "growth": "46.4% (inactive)"
  },
  {
    "molecule": "Cc1[nH]c2ccc(F)cc2c1CCNC(=O)C1CCN(C(=O)c2ccccc2)C1 (configuration not stated)",
    "assayTarget": "SK-MEL-28 melanoma",
    "growth": "95.1% [25 µM] (inactive)"
  },
  {
    "molecule": "CCOC(=O)CN1/C(=N/c2sc3c(c2C(=O)OCC)CCN(C(=O)OCC)C3)SC(=O)/C1=C\\C(=O)OC",
    "assayTarget": "SK-MEL-28 melanoma",
    "growth": "109% (inactive)"
  },
  {
    "molecule": "Cc1ccc(S(=O)(=O)c2nc(-c3ccccc3)oc2S(C)(=O)=O)cc1",
    "assayTarget": "SK-MEL-28 melanoma",
    "growth": "62.6% (inactive)"
  },
  {
    "molecule": "Fc1ccc(-c2nc(-c3nc4ncccc4[nH]3)cc3c2[nH]c2ccccc23)cc1F",
    "assayTarget": "SK-MEL-28 melanoma",
    "growth": "94% (inactive)"
  }
]
